- ASSAY_NAME: AUC (infinity) in ICR mouse at 1 mg/kg, po via gavage by LC-MS/MS analysis
- Assay type: ADME, organism-based
- Set-up: time infinity, dose 1 mg/kg, route oral
- MEASUREMENT_CONDITIONS: plasma
VALUE_TYPE: AUC(0-inf)

>>> test_value("COc1cc(C(=O)c2cccc(-c3cc4ccccc4[nH]3)c2)cc(OC)c1OC")
"148 ng·h/mL"

----------
- ASSAY_NAME: Mean residence time (infinity) in ICR mouse at 15 mg/kg, iv by LC-MS/MS analysis
- Format: ADME, organism-based
- Parameters: dose 15 mg/kg, route intravenous
- MEASUREMENT_CONDITIONS: in vivo
VALUE_TYPE: MRT inf (h)

>>> test_value("COc1cc(C(=O)c2cccc(-c3cc4ccccc4[nH]3)c2)cc(OC)c1OC")
8.8

----------
- ASSAY_NAME: AUC (infinity) in ICR mouse at 5 mg/kg, ip by LC-MS/MS analysis
- Assay type: ADME, organism-based
- Design: time infinity, dose 5 mg/kg, route intraperitoneal
- MEASUREMENT_CONDITIONS: plasma
VALUE_TYPE: AUC(0-inf)

>>> test_value("COc1cc(C(=O)c2cccc(-c3cc4ccccc4[nH]3)c2)cc(OC)c1OC")
"3750 ng·h/mL"

----------
- ASSAY_NAME: Metabolic stability in dog liver microsomes assessed as half life during phase 1 and 2 at 0.5 uM by LC-MS/MS analysis in presence of 3 mM NADPH and […] UDPGA
- Assay type: ADME, Canis lupus familiaris
- MEASUREMENT_CONDITIONS: read-out: alphat1/2
VALUE_TYPE: half-life at 0.5 µM (min)

>>> test_value("COc1cc(C(=O)c2cccc(-c3cc4ccccc4[nH]3)c2)cc(OC)c1OC")
33

----------
- ASSAY_NAME: Bioavailability in ICR mouse at 15 mg/kg, ip by LC-MS/MS analysis
- Type: ADME, organism-based
- MEASUREMENT_CONDITIONS: in vivo
VALUE_TYPE: bioavailability (%)

>>> test_value("COc1cc(C(=O)c2cccc(-c3cc4ccccc4[nH]3)c2)cc(OC)c1OC")
94

----------
- ASSAY_NAME: Terminal half life in ICR mouse at 15 mg/kg, ip by LC-MS/MS analysis
- Assay type: ADME, organism-based
- Set-up: dose 15 mg/kg, route intraperitoneal
- MEASUREMENT_CONDITIONS: in vivo, read-out: beta t1/2 (converted)
VALUE_TYPE: half-life (h)

>>> test_value("COc1cc(C(=O)c2cccc(-c3cc4ccccc4[nH]3)c2)cc(OC)c1OC")
8.3

----------
- ASSAY_NAME: Mean residence time (infinity) in ICR mouse at 15 mg/kg, ip by LC-MS/MS analysis
- Format: ADME, organism-based
- Design: dose 15 mg/kg, route intraperitoneal
- MEASUREMENT_CONDITIONS: in vivo
VALUE_TYPE: MRT inf (h)

>>> test_value("COc1cc(C(=O)c2cccc(-c3cc4ccccc4[nH]3)c2)cc(OC)c1OC")
7

----------
- ASSAY_NAME: Clearance in ICR mouse at 5 mg/kg, iv by LC-MS/MS analysis
- Assay type: ADME, organism-based
- Set-up: dose 5 mg/kg, route intravenous
- MEASUREMENT_CONDITIONS: in vivo
VALUE_TYPE: clearance (mL/min/kg)

>>> test_value("COc1cc(C(=O)c2cccc(-c3cc4ccccc4[nH]3)c2)cc(OC)c1OC")
22
